Counter-ions that a name gives are not always drawn.
Overview of recorded melting point for various compounds
parameter: melting point

{"columns": ["compound", "parameter", "result"],
 "data": [
  ["COc1ccc(-c2ccncc2)cc1-c1ccc(Oc2ccccc2)cc1 (as salt: hydrochloride)", "melting point", "173 to 218 °C"],
  ["COc1ccc(-c2ccc(C(=O)O)cc2)cc1-c1ccc2nonc2c1", "melting point", "> 300 °C"],
  ["CCOC(=O)c1cccc(-c2ccc(OC)c(-c3cccc([N+](=O)[O-])c3)c2)c1", "melting point", "87 to 89 °C"],
  ["COc1ccc(-c2ccc(C(=O)O)cc2)cc1-c1cccc(C#N)c1", "melting point", "280 to 285 °C"],
  ["COc1ccc(-c2ccncc2)cc1-c1ccc(F)c(Cl)c1 (as salt: hydrochloride)", "melting point", "115 °C"],
  ["COc1ccc(-c2ccc(C(=O)O)cc2)cc1-c1cccc(Cl)c1", "melting point", "250 to 252 °C"],
  ["COc1ccc(-c2ccc(C(=O)OCC(C)(C)C)cc2)cc1-c1ccc2nonc2c1", "melting point", "131 to 136 °C"],
  ["COc1ccc(-c2cccc(C(N)=O)c2)cc1-c1cccc([N+](=O)[O-])c1", "melting point", "118 to 120 °C"]
]}

###

Where a name gives a salt, the structure may show the parent alone.
parameter: melting point

{"columns": ["compound", "parameter", "result"],
 "data": [
  ["COc1ccc(-c2ccc(C(=O)O)c(C)c2)cc1-c1cccc([N+](=O)[O-])c1 [Example 20]", "melting point", "278 to 281 °C"],
  ["COc1ccc(-c2cccc(C(=O)O)c2)cc1-c1cccc([N+](=O)[O-])c1 [Example 19]", "melting point", "223 to 228 °C"],
  ["COc1ccc(-c2ccc3nccn3c2)cc1-c1ccc2nonc2c1 [Example 28]", "melting point", "190 to 196 °C"],
  ["CCOC(=O)c1ccc(-c2ccc(OC)c(-c3cccc([N+](=O)[O-])c3)c2)cc1 [Example 13]", "melting point", "106 to 108 °C"],
  ["COc1ccc(-c2ccncc2)cc1-c1cccc(Oc2ccccc2)c1 (as salt: hydrochloride) [Example 9]", "melting point", "184 to 204 °C"],
  ["COc1ccc(-c2ccc(C(N)=O)c(C)c2)cc1-c1cccc([N+](=O)[O-])c1 [Example 26]", "melting point", "179 to 184 °C"],
  ["COc1ccc(-c2ccncc2)cc1-c1ccc2nonc2c1 [Example 5]", "melting point", "187 to 192 °C"],
  ["CCOC(=O)c1ccc(-c2ccc(OC)c(-c3ccc4nonc4c3)c2)cc1 [Example 16]", "melting point", "166 to 168 °C"]
]}

###

Structures can show the parent of a compound that is named as a salt.

{"columns": ["molecule", "melting point"],
 "data": [
  ["CCOC(=O)c1ccc(-c2ccc(OC)c(-c3cccc([N+](=O)[O-])c3)c2)cc1C", "88 to 90 °C"],
  ["COc1ccc(-c2ccc(C(N)=O)cc2)cc1-c1cccc([N+](=O)[O-])c1", "201 to 205 °C"],
  ["COc1ccc(-c2ccncc2)cc1-c1cccc(Cl)c1 (as salt: hydrochloride)", "156 to 210 °C"],
  ["CNC(=O)c1ccc(-c2ccc(OC)c(-c3cccc([N+](=O)[O-])c3)c2)cc1", "171 to 172 °C"]
]}

Sourced from patent US6410547B1
